// data source = patent US8816052B2

- MEASURED ON: Native Aequorin (Aequorea victoria)
- Construct: His tag (from the vector name piP-His-HE); made in house
- Sequence (P02592 9-196 limits assumed): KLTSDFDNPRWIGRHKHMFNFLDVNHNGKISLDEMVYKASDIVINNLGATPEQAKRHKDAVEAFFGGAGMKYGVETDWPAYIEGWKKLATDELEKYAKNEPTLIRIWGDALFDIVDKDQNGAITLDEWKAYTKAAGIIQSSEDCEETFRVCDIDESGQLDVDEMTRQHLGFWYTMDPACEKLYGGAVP
- TEST PROTOCOL: Substrate specificity: semi-synthetic aequorin from coelenterazine analogue and purified apoaequorin
- Format: biochemical
- MEASUREMENT CONTEXT: CTZ = 100, 50 mM calcium solution
PROPERTY MEASURED: Relative Luminescence Intensity (%)

• Oc1ccc(Cc2nc3c(Cc4ccccc4)nc(-c4ccc(O)cc4)cn3c2O)cc1 = 100
• O=c1c(Cc2cccc(O)c2)nc2c(Cc3ccccc3)[nH]c(-c3ccc(O)cc3)cn1-2 = 51.6
• COc1ccc(Cc2nc3c(Cc4ccccc4)[nH]c(-c4ccc(O)cc4)cn-3c2=O)cc1 = 22.3
• O=c1c(Cc2ccccc2)nc2c(CC3CCCC3)[nH]c(-c3ccc(O)cc3)cn1-2 = 20.5
